Reference for the values: patent US20120172293A1

# system: human Y2 receptor (human) (UniProt P49146)
# Sequence (P49146 whole entry): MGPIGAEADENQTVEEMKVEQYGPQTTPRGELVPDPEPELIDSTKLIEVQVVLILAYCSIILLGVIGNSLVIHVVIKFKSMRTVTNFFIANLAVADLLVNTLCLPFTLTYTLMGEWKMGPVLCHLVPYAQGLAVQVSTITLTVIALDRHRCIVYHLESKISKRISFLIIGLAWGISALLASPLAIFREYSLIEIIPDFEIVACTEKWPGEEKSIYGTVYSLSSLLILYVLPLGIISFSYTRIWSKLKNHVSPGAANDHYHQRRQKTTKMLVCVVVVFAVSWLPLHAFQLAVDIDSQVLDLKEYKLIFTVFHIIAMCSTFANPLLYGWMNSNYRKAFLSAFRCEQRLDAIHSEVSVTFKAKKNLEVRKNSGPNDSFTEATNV
# experimentSummary: RBA: [125I]-PYY displacement, hY2R/CHO membranes
Non-standard residues stand in square brackets, D forms with d. *: point of attachment. 4Pal = N[C@@H](Cc1ccncc1)C(=O)O; Cha = N[C@@H](CC1CCCCC1)C(=O)O; Gly(cPr) = N[C@H](C(=O)O)C1CC1; dCha = N[C@H](CC1CCCCC1)C(=O)O; Isobutyryl = CC(C)C(=O)*; dNMeA = CN[C@H](C)C(=O)O; Abu = CC[C@H](N)C(=O)O; Aib = CC(C)(N)C(=O)O
# IC50 Ratio (vs PYY(3-36)) annotations
propertyName: IC50 Ratio (vs PYY(3-36))

# binder, measured
data = [
    ("Ac-E[dP]R[4Pal][Cha][Cha]NL[Aib]TRQR[Cha]-NH2 (SMILES CC(=O)N[C@@H](CCC(=O)O)C(=O)N1CCC[C@@H]1C(=O)N[C@@H](CCCNC(=N)N)C(=O)N[C@@H](Cc1ccncc1)C(=O)N[C@@H](CC1CCCCC1)C(=O)N[C@@H](CC1CCCCC1)C(=O)N[C@@H](CC(N)=O)C(=O)N[C@@H](CC(C)C)C(=O)NC(C)(C)C(=O)N[C@H](C(=O)N[C@@H](CCCNC(=N)N)C(=O)N[C@@H](CCC(N)=O)C(=O)N[C@@H](CCCNC(=N)N)C(=O)N[C@@H](CC1CCCCC1)C(N)=O)[C@@H](C)O) [Ac-[Glu23, D-Pro24, Pya(4)26, Cha27,28,36, Aib31]-PYY(23-36)]", 4.6),
    ("Ac-S[dNMeA]RH[Cha][Cha]NL[Aib]TRQR[Cha]-NH2 (SMILES CC(=O)N[C@@H](CO)C(=O)N(C)[C@H](C)C(=O)N[C@@H](CCCNC(=N)N)C(=O)N[C@@H](Cc1c[nH]cn1)C(=O)N[C@@H](CC1CCCCC1)C(=O)N[C@@H](CC1CCCCC1)C(=O)N[C@@H](CC(N)=O)C(=O)N[C@@H](CC(C)C)C(=O)NC(C)(C)C(=O)N[C@H](C(=O)N[C@@H](CCCNC(=N)N)C(=O)N[C@@H](CCC(N)=O)C(=O)N[C@@H](CCCNC(=N)N)C(=O)N[C@@H](CC1CCCCC1)C(N)=O)[C@@H](C)O) [Ac-[D-MeAla24, Cha27,28,36, Aib31]-PYY(23-36)]", 3.4),
    ("Ac-[dCha]R[Abu][Cha][Cha]NL[Aib]TRQR[Cha]-NH2 (SMILES CC[C@H](NC(=O)[C@H](CCCNC(=N)N)NC(=O)[C@@H](CC1CCCCC1)NC(C)=O)C(=O)N[C@@H](CC1CCCCC1)C(=O)N[C@@H](CC1CCCCC1)C(=O)N[C@@H](CC(N)=O)C(=O)N[C@@H](CC(C)C)C(=O)NC(C)(C)C(=O)N[C@H](C(=O)N[C@@H](CCCNC(=N)N)C(=O)N[C@@H](CCC(N)=O)C(=O)N[C@@H](CCCNC(=N)N)C(=O)N[C@@H](CC1CCCCC1)C(N)=O)[C@@H](C)O) [Ac-[D-Cha24, Abu26, Cha27,28,36, Aib31]-PYY(24-36)]", 15),
    ("Isobutyryl-R[Abu][Cha][Cha]NL[Gly(cPr)]TRQR[Cha]-NH2 (SMILES CC[C@H](NC(=O)[C@H](CCCNC(=N)N)NC(=O)C(C)C)C(=O)N[C@@H](CC1CCCCC1)C(=O)N[C@@H](CC1CCCCC1)C(=O)N[C@@H](CC(N)=O)C(=O)N[C@@H](CC(C)C)C(=O)N[C@H](C(=O)N[C@H](C(=O)N[C@@H](CCCNC(=N)N)C(=O)N[C@@H](CCC(N)=O)C(=O)N[C@@H](CCCNC(=N)N)C(=O)N[C@@H](CC1CCCCC1)C(N)=O)[C@@H](C)O)C1CC1) [Isobutanoyl-[Abu26, Cha27,28,36, Gly(cPr)31]-PYY(25-36)]", 25),
]
